# measurementProtocol: NCI Yeast Anticancer Drug Screen. Data for the bub3 strain (AID 167)
# statedConditions: S. cerevisiae bub3 mutant strain, at 50.0 µM
# Protocol: Growth inhibition of yeast strains with defined genetic alterations is measured as a screen for potential anti-cancer activity. Selected strains with alterations in DNA damage repair or cell cycle control were exposed to compounds and growth inhibition was measured relative to vehicle treated controls. The strain used in this assay is bub3
The panel holds about 79,000 compounds, 15% with a hit somewhere; the sample as a whole holds those more often. Active and inactive are the calls of the source. Cut-off read from the data, not from the text of the source: active = growth inhibition above about 70%; inactive = the rest.
Outcome codes: True for active, False for inactive

molecule	groupLabel
O=C(O)c1cccc(F)n1	False
Cc1ccc(NC(=O)C2C3CC4OC(=O)C2C4C3)cc1 (stereo not drawn)	False
Nc1cc(C(Br)(Br)Br)nc2ccccc12	False
CCSC(OC(C)=O)C(Nc1ccc([N+](=O)[O-])cc1[N+](=O)[O-])C(OC(C)=O)C(OC(C)=O)C(COC(C)=O)OC(C)=O (stereo not drawn)	False
O=C(NCc1ccco1)Nc1ccccc1Cl	False
CCCOC(=O)/C=C/c1ccc(OC)cc1	False
COc1cc(C)c(N)cc1N	False
Cc1c(Cl)cccc1NC(=O)Nc1ccccc1F	False
COc1cc(OC)c(NC(=O)CC2SC(N)=NC2=O)cc1Cl (stereo not drawn)	False
CN(C)CCNC1=CC(=O)c2nc3ccccc3c3ccnc1c23	False
CC(=O)CCC(=O)CCC(C)=O	False
COc1cc2c(cc1OC)CN1CCc3ccccc3CC1C2 (stereo not drawn)	False
CC1=C2C(=CC(C)(CO)C2O)C(O)C(C)(O)C12CC2 (stereo not drawn)	False
CCCCN(CC)CCNc1cc(C)nc(/N=C(\N)Nc2ccc(Cl)c(Cl)c2)n1	True
C#CCN(Cc1ccc2nc(-c3ccccc3)c(Cl)nc2c1)c1ccc(Cl)c(Cl)c1	False
COc1ccc2c(c1)CCC1C(=O)NN=C21 (stereo not drawn)	False
Cc1ccccc1-c1nc(/C=C2\C(=O)C=Cc3ccccc32)c(O)o1	False
CC(C)(C)c1ccc(SCC#CCOc2ccc(Cl)cc2)cc1	False
COc1ccc(N(Cc2ccccc2)c2nn[nH]n2)cc1	False
N#CCCN(C1=NN(C(=O)CC(=O)Nc2ccccc2)C(c2ccccc2)C1)c1ccccc1Cl (stereo not drawn)	False
CC1=C/C(=N/Nc2ccc([N+](=O)[O-])cc2[N+](=O)[O-])CC(C)(C)C1	False
O=[N+]([O-])c1cccc(/C=N\NS(=O)(=O)c2ccc(Cl)cc2)c1O	False
O=C1C2=Cc3ccccc3OC2(O)Oc2cc(O)ccc21 (stereo not drawn)	False
c1cnn([B-]2(n3cccn3)n3ccc[n+]3[B-](n3cccn3)(n3cccn3)n3ccc[n+]32)c1	False
NS(=O)(=O)c1ccc(N=Nc2nc3[nH]c(=O)[nH]c(=O)c3[nH]2)cc1	False
O=C1C(Cl)=C(N(C(=O)c2ccccc2)C(=O)c2ccccc2)C(=O)c2ccccc21	True
CCN(CC)C(N)=Nc1cc2ccccc2c2ccccc12	False
CC(C)C(C)(O)c1ccccc1 (stereo not drawn)	False
CCC(C)Nc1ccc(NS(=O)(=O)CCl)cc1 (stereo not drawn)	False
COc1ccccc1-n1on1-c1ccccc1OC	False
CCC(O)C(C)CO (stereo not drawn)	False
C=CCNC(=S)/N=C/c1c(C(=O)OCC)[nH]n(-c2ccccc2)c1=O	False
CCCC1(C(OC)OC)NC(=O)N(Cc2ccccc2)C1=O (stereo not drawn)	False
Cc1c(-c2ccccc2)[nH]n(C2=NCCN2)c1=O	False
O=c1ccn(-c2ccccn2)c(=O)n1-c1ccccn1	False
CC(/C=N/N(C)C1=NCCCCN1)=N/N(C)C1=NCCCCN1	False
CC(=O)OCCc1ccc2c(c1)OCO2	False
CCCCCCCCN(c1ccc(C(=O)NC(CCC(=O)OCC)C(=O)OCC)cc1)S(=O)(=O)c1ccc(C)cc1 (stereo not drawn)	False
CC1=C(C(=O)NNC(=O)c2ccccc2)CC(C(=O)NNC(=O)c2ccccc2)=C(C)N1	False
CC(=O)OC1CC23CCC(=O)C2(CC3)C1 (stereo not drawn)	False
Cc1cc2c(=O)cc(-c3ccc(F)cc3)oc2c(C(=O)O)c1C	False
CCOC(=O)C(=[N+]=[N-])C(=O)CN1C(=O)C2CC(C)=C(C)CC2C1O (stereo not drawn)	False
COc1ccccc1-c1cc(=O)c2cc(C)c(C)c(C(=O)O)c2o1	False
c1ccc(-c2coc(-c3ccccc3)c2)cc1	False
N#Cc1ccc[n+](Cc2c(Cl)cccc2Cl)c1	False
C=CC12c3c4cc(OC)cc3OC1C(O)CCC2CC4 (stereo not drawn)	False
C1CCC(N(CCN(C2CCCCC2)C2CCCCC2)C2CCCCC2)CC1	False
CN(C)CCCSc1nc2ccccc2[nH]1	False
